The values you see were collected from patent US11999697B2.

Test: Pharmacokinetic study, single dose by IV, IP, PO
Type: in vivo, wild type B6 mice
Conditions: B6; PO, 10 mg/kg single dose, mouse plasma
property.measured: Cmax (ng/mL)

- CCOc1ccc(-c2ccc(-c3cc(C(=O)O)c4cc(F)ccc4n3)cc2)cc1: 12200

====

IC50 for assorted molecules
System: HL-60
Experiment: MTS cell proliferation assay, HL-60
Assay type: cell-based
Conditions: Homo sapiens, 96 hours
property.measured: IC50 (µM)

• COc1ccc(-c2ccc(-c3cc(C(=O)O)c4cc(Cl)ccc4n3)cc2)cc1 = 20.9
• Cc1c(-c2ccc(-c3ccc(F)cc3)cc2)nc2ccc(F)cc2c1C(=O)O = 2.4
• CCOc1ccc(-c2ccc(-c3cc(C(=O)O)c4cc(F)ccc4n3)cc2)cc1 = 0.28
• CCOc1ccc(-c2ccc(-c3cc(C(=O)O)c4cccc(F)c4n3)cc2)cc1 = 1.69
• O=C(O)c1cc(-c2ccc(-c3ccc(F)cc3)cc2)nc2ccc(Cl)cc12 = 3
• Cc1c(-c2ccc(-c3ccc(F)cc3F)cc2)nc2c(F)cccc2c1C(=O)O = 9.48
• Cc1c(-c2ccc(-c3ccccc3F)cc2)nc2ccc(F)cc2c1C(=O)O [BQR•Na, reference compound] = 0.23
• COc1ccc(-c2ccc(-c3cc(C(=O)O)c4cccc(F)c4n3)cc2)cc1 = 3.57
